Catalogue of percent blocking values
- measured on: recombinant monomeric SARS-CoV-1 S1 protein (SARS-CoV-1, UniProt P59594 14-667)
- protocol notes: flow cytometry, blocking of binding to hACE-2 cells

Please review the following examples before continuing.
binder	percent blocking
1035211 (antibody, V domains shown) VH: QVQLQQSGAELARPGASVKMSCKASGYTFTNYTMHWVKQRPGQGLEWIGYINPSSGYTNYNQKFKDKATLTADKSSSTAYMQLSSLTSEDSAVYYCARRNPLYAMDYWGQGTSVTVSS VL: DIKMTQSPSSMYASLGERVTITCKASQDINSYLNWFQQKPGKSPKTLIYRANRLVDGVPSRFSGSGSGQDYSLTISSLEFEDMGIYYCLQYDEFPYTFGGGTKLEIK	0%
1035762 (antibody, V domains shown) VH: EVQLQQSGPELVKPGASVKISCKTSGYTFTEYTMHWVKQSHGKSLEWIGGINPNNGDTGYNQKFKGKATLTVDKSSSTAYMELRSLTFEDSAVYYCARDGYPLYYAMDYWGQGTSVTVSS VL: DIQMTQSPSSLSASLGERVSLTCRASQEISGYLCWLQQKPDGTIKRLIYAASTLDSAVPKRFSGSRSGSDYSLTISSLESEDFADFYCLQYASYPWTFGGGTKLEIK	0%

Shifting focus to the binder that follows.
// field: percent blocking; key: 1035755 (antibody, V domains shown) VH: EVQLQQSGAELVRPGALVKLSCKASGFNIKDYYMHWVKQRPEQGLEWIGWIDPENGNSIYDPKFQGKASITADTSSNTAYLQLSSLTSEDTAVYYCATPSATSYFDYWGQGTTLTVSS VL: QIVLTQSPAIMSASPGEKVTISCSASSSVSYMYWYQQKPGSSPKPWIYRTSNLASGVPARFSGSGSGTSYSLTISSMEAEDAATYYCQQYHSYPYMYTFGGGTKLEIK ; value = 1.3%
